- test_method_notes: chemical genetic growth profiling, strain panel (AID 1159580);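 note: tested at 20 µM; growth read once vehicle control cultures reached saturation at 30 °C; 1 = growth at the plate median or of vehicle wells; lower values mean less growth of the strain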
- condition_set: S. cerevisiae deletion strains, growth OD, locus YNL020C, strain ARK1, active compounds read low
In all, about 5,500 compounds went through this assay and about 2,000 (36%) were called active. Roughly 18% stayed inconclusive and do not appear here. The list shows a part of the results.
property: normalized growth

                                    molecule           property  observed_measurement
 0                          CN(C)c1nc(=S)ss1  normalized growth                 0.189
 1  O=C(NNc1c(Cl)cccc1Cl)c1ccc([N+](=O)[O-])o1  normalized growth                 0.919
 2           COc1cccc(C(=O)C(C#N)=C(SC)SC)c1  normalized growth                 0.432
 3  N#CC(C#N)=NNc1cc(C(F)(F)F)ccc1OCC(F)(F)F  normalized growth                 0.917
 4  CN(NC(=S)Nc1cc(Cl)ccc1Cl)c1ccc(C(F)(F)F)cc1[N+](=O)[O-]  normalized growth                 0.897
 5    CCCCCc1ccc(S(=O)(=O)Nc2ncc(C)cc2Br)cc1  normalized growth                 0.796
 6  O=C(OCc1ccc(Oc2ccc(Cl)cc2Cl)c([N+](=O)[O-])c1)c1ccc([N+](=O)[O-])o1  normalized growth                 0.996
 7  O=C(SCc1c(Cl)cccc1Cl)c1ccc([N+](=O)[O-])o1  normalized growth                  0.48
 8  C(=NC(N=Cc1ccccc1)c1ccccc1)c1ccccc1 (stereo not drawn)  normalized growth                 0.966
 9  Cc1c(NCN2C(=O)CCC2=O)cc2c(c1[N+](=O)[O-])C(C)(C)CC2(C)C  normalized growth                 0.932
10  FC(F)(F)c1ccc(NC(=S)Nc2ccc(C(F)(F)F)cc2Cl)c(Cl)c1  normalized growth                 0.887
11  CC(NC(=S)Nc1ccc(Oc2ccc(Cl)cc2)cc1)c1ccccc1 (stereo not drawn)  normalized growth                 0.911
12  Cc1c(C(=O)NCCNc2ccc(C(F)(F)F)cc2[N+](=O)[O-])cnn1-c1ccc(F)cc1  normalized growth                 0.941
13  Oc1ccc(-n2nnnc2SCc2ccc(OC(F)(F)F)cc2)cc1  normalized growth                 0.805
14      CC(/C=C/c1ccccc1)=N/OC(=O)c1ccccc1Cl  normalized growth                 0.905
15            O=C(Oc1ccc(C2SCCS2)cc1)c1cccs1  normalized growth                 0.829
16   N#C/C(=N/Nc1ccc(C(F)(F)F)cc1)C(=O)C1CC1  normalized growth                 0.914
17  CSc1nc(Sc2n[nH]c(-c3ccccc3)n2)cc(Sc2n[nH]c(-c3ccccc3)n2)n1  normalized growth                  1.01
18      CSc1sc(-c2ccn[nH]2)c(-c2ccccc2)c1C#N  normalized growth                 0.996
19  N#CC(C#N)=NNc1ccc(-n2ccc(C(F)(F)F)n2)cc1  normalized growth                 0.349
20  CC(Oc1ccc(Cl)cc1Cl)C(=O)NNC(=S)Nc1ccccc1 (stereo not drawn)  normalized growth                 0.954
21         N#C/C(=N/Nc1ccc(Cl)cc1)C(=O)C1CC1  normalized growth                 0.805
22  Cc1nc(C(F)(F)F)ccc1-c1nnc(SC(=O)c2ccc(Cl)cc2)o1  normalized growth                 0.655

Each recorded value in this set is attributed to PubChem BioAssay AID1159580.
